test-name: Diarrhoea activity
experimental-context: rat, in vivo, po
Counter-ions that a name gives are not always drawn.
measured-property: ED50

// each compound listed below needs its ED50
1. CC(=O)ON=CC1=CCCN(C)C1 [Example 5]
2. CN(C)CCON=CC1=CCCN(C)C1 [Example 6]
3. CC(C)ON=CC1=CCCN(C)C1 [Example 4, hydrochloride]

# output
1: > 100 mg/kg; 2: > 100 mg/kg; 3: > 100 mg/kg
